- Tested on: Bacillus subtilis
- assay overview: Antibacterial activity against Bacillus subtilis at 30000 ppm after 24 hrs by agar diffusion method
- Format: functional
- measurement context: read-out: IZ
Below, each entry is listed with its recorded zone of inhibition at 30000 ppm.
The figure you give is taken to be in mm; do not add the unit.

NC1=Nc2nc3ccccc3n2C2(NC(=O)CS2)N1 (stereo not given); 13
c1ccc(-c2c[nH]/c(=N/c3nc4ccccc4[nH]3)[nH]2)cc1; 11
CC1(C)[C@@H]2CC[C@@]1(C)C1(C2)NC(N)=Nc2nc3ccccc3n21 (stereo not given in full); 5
CC1=NN(c2ccccc2)C2(C1)NC(N)=Nc1nc3ccccc3n12 (stereo not given); 3
N#Cc1[nH]/c(=N/c2nc3ccccc3[nH]2)[nH]c1N; 11
Clc1c[nH]/c(=N/c2nc3ccccc3[nH]2)[nH]1; 10

Then there is this compound:
Find the recorded zone of inhibition at 30000 ppm belonging to "NC1=Nc2nc3ccccc3n2C2(NC(=O)CC(=O)N2)N1" and report it.
10

====

- Test system: Bacillus subtilis
- assay overview: Antibacterial activity against Bacillus subtilis at 50000 ppm after 24 hrs by agar diffusion method
- Format: functional
- measurement context: read-out: IZ
Overview of reported zone of inhibition at 50000 ppm across a group of compounds:
Enter your answer as a number in mm; do not include the unit.

A selection of reference data follows.
CC1(C)[C@@H]2CC[C@@]1(C)C1(C2)NC(N)=Nc2nc3ccccc3n21 (some centres not stated); 6
Clc1c[nH]/c(=N/c2nc3ccccc3[nH]2)[nH]1; 14
Nc1c[nH]/c(=N/c2nc3ccccc3[nH]2)[nH]1; 6

Would you mind telling me what zone of inhibition at 50000 ppm value was observed for NC1=Nc2nc3ccccc3n2C2(NC(=O)CS2)N1 (configuration not stated) ?
16

====

- Tested on: Bacillus subtilis
- assay overview: Antibacterial activity against Bacillus subtilis at 30000 ppm after 24 hrs by agar diffusion method
- Assay type: functional
- measurement context: read-out: IZ
Reported values of zone of inhibition at 30000 ppm for individual entries

Cc1c[nH]/c(=N/c2nc3ccccc3[nH]2)[nH]1; 13 mm
NC1=NC2(CCCC2)n2c(nc3ccccc32)N1; 12 mm

Turning now to a further compound:
Quick check: zone of inhibition at 30000 ppm on Bacillus subtilis, item "NC1=NC2(CCCCC2)n2c(nc3ccccc32)N1" ?
11 mm

====

Below, each of the compounds is paired with its reported zone of inhibition at 50000 ppm value.
- System: Bacillus subtilis
- assay overview: Antibacterial activity against Bacillus subtilis at 50000 ppm after 24 hrs by agar diffusion method
- Assay type: functional
- measurement context: read-out: IZ
Record the value in mm, omitting the unit from your answer.

Use the examples below as a reference point.
Cc1c[nH]/c(=N/c2nc3ccccc3[nH]2)[nH]1; 15
N#Cc1[nH]/c(=N/c2nc3ccccc3[nH]2)[nH]c1N; 16
Oc1c[nH]/c(=N/c2nc3ccccc3[nH]2)[nH]1; 7
CC1=NN(c2ccccc2)C2(C1)NC(N)=Nc1nc3ccccc3n12 (stereo not drawn); 9

What measured zone of inhibition at 50000 ppm goes with "c1ccc(-c2c[nH]/c(=N/c3nc4ccccc4[nH]3)[nH]2)cc1" ?
14

zone of inhibition at 50000 ppm for "NC1=NC2(CCCCC2)n2c(nc3ccccc32)N1" ?
13

Sample "NC1=Nc2nc3ccccc3n2C2(NC(=O)CC(=O)N2)N1" — what was its zone of inhibition at 50000 ppm?
14

Quick check: zone of inhibition at 50000 ppm of "NC1=NC2(CCCC2)n2c(nc3ccccc32)N1" ?
15

These data points were gathered from ChEMBL document CHEMBL1926648.
